Where do these numbers come from? They come from paper PMC6838683.

Exercise: state measured Internalization assays Emax (AUC) for each of the sequences provided.
# systemTested: GPR55 (Homo sapiens, UniProt Q9Y2T6)
# Sequence (Q9Y2T6 2-319 limits assumed): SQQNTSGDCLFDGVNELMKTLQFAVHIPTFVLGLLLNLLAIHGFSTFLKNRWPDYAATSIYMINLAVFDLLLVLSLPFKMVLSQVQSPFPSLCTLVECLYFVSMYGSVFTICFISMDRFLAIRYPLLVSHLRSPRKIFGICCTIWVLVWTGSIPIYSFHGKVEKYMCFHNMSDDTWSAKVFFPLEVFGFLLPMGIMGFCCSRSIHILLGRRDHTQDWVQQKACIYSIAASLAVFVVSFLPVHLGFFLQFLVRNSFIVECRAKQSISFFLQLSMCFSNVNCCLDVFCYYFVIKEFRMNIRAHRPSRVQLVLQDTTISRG
# methodNotes: Real-time receptor internalization (TR-FRET), concentration-response
# Assay type: cell-based
# Set-up: hIL-2Ra signal peptide (N); expressed in transfected cells
# experimentalConditions: receptor GPR55; mean, SEM and n (3-4)
Answers are plain numbers.

{"columns": ["residueCodes", "Internalization assays Emax (AUC)"],
 "data": [
  ["DLLPPRTPPYQVHISHREARGPSFRICVDFLG [Peptide 213.5]", 19.6]
]}

Record Internalization assays Emax (AUC) for all entries; do not skip any.
1. KRYSRLDYLINGIYVDI [114 original]
2. KRLGALFNPYFDPLQWKNSDFE [143 original]
3. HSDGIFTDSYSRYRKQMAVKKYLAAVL [168 original]

// result
1. 46.9
2. 39.5
3. 32.4

* * *

Give measured EC50 for each item. Keep answers brief.
# systemTested: GPR1 (Homo sapiens)
# Sequence (P46091 1-355): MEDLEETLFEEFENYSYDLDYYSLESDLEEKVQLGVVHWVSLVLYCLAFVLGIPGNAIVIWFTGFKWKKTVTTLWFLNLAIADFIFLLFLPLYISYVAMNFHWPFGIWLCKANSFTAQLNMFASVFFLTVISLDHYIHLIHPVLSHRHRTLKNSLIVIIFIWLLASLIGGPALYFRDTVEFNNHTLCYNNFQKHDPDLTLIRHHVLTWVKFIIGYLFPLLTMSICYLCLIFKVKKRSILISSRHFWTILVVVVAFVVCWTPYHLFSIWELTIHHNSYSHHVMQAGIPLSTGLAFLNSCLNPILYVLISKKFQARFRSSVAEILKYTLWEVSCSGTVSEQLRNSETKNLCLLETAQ
# methodNotes: β-arrestin recruitment (PathHunter)
# Format: cell-based
# experimentalConditions: receptor GPR1; mean, SEM and n (2-3); read-out: b-arrestin recruitment assays (PathHunter) pEC50 (converted)
Residues, ends and D or L forms follow the SMILES beside them.
Answers are plain numbers, in nM.

Example entries and their recorded answers appear below.
{"columns": ["compound", "systemTested", "EC50, nM"],
 "data": [
  ["CC(C)C[C@H](NC(=O)[C@H](CCCNC(=N)N)NC(=O)[C@H](CC(=O)O)NC(=O)[C@H](CC(C)C)NC(=O)[C@@H]1CCCN1C(=O)[C@H](CO)NC(=O)CNC(=O)[C@H](Cc1ccccc1)NC(=O)CNC(=O)[C@H](CO)NC(=O)[C@H](Cc1ccccc1)NC(=O)[C@@H](N)CO)C(=O)N[C@@H](CO)C(=O)N[C@@H](C)C(=O)NCC(=O)N[C@@H](CO)C(=O)N[C@H](C(=O)N[C@@H](CC(=O)O)C(=O)N[C@@H](Cc1c[nH]cn1)C(=O)N[C@@H](CCCCN)C(N)=O)C(C)C [Peptide 141.1] (H-SFSGFGSPLDRLSAGSVDHK-NH2)", "GPR1 (Homo sapiens)", 14100],
  ["CSCC[C@H](NC(=O)[C@H](Cc1ccc(O)cc1)NC(=O)[C@@H](N)CC(=O)O)C(=O)NCC(=O)N[C@@H](Cc1c[nH]c2ccccc12)C(=O)N[C@@H](CCSC)C(=O)N[C@@H](CC(=O)O)C(=O)N[C@@H](Cc1ccccc1)C(N)=O [Peptide 194.1]", "GPR1 (Homo sapiens)", 1.45],
  ["C[C@H](NC(=O)[C@@H](N)CCCCN)C(=O)N1CCC[C@H]1C(=O)N[C@@H](CO)C(N)=O [Peptide 194.3] (H-KAPS-NH2)", "GPR1 (Homo sapiens)", 0.049],
  ["CSCC[C@H](NC(=O)[C@H](CCCCN)NC(=O)[C@@H](NC(=O)[C@H](CC(C)C)NC(=O)[C@@H](NC(=O)[C@@H](NC(=O)CNC(=O)CNC(=O)CNC(=O)[C@H](C)NC(=O)[C@@H]1CCCN1C(=O)[C@H](CC(C)C)NC(=O)[C@@H]1CCCN1C(=O)[C@@H](N)C(C)C)[C@@H](C)O)C(C)C)[C@@H](C)O)C(=O)N[C@@H](Cc1ccc(O)cc1)C(=O)N1CCC[C@H]1C(=O)N[C@@H](CCCNC(=N)N)C(=O)O [Peptide 167.2] (H-VPLPAGGGTVLTKMYPR-OH)", "GPR1 (Homo sapiens)", 2290],
  ["CSCC[C@H](NC(=O)[C@@H](N)Cc1c[nH]c2ccccc12)C(=O)N[C@@H](CC(=O)O)C(=O)N[C@@H](Cc1ccccc1)C(N)=O", "GPR1 (Homo sapiens)", 0.0132]
]}

Field: next compound
Log: GPR1 (Homo sapiens), compound CSCC[C@H](NC(=O)[C@H](CC(C)C)NC(=O)[C@H](Cc1cnc[nH]1)NC(=O)CNC(=O)[C@@H](NC(=O)[C@H](C)NC(=O)[C@H](Cc1c[nH]c2ccccc12)NC(=O)[C@H](Cc1cnc[nH]1)NC(=O)[C@H](CC(N)=O)NC(=O)CN)C(C)C)C(N)=O [Peptide 167.1] , EC50 = 22900
